- TARGET OR TEST SYSTEM: FLT3 (Homo sapiens, UniProt P36888)
- Sequence (P36888 27-993): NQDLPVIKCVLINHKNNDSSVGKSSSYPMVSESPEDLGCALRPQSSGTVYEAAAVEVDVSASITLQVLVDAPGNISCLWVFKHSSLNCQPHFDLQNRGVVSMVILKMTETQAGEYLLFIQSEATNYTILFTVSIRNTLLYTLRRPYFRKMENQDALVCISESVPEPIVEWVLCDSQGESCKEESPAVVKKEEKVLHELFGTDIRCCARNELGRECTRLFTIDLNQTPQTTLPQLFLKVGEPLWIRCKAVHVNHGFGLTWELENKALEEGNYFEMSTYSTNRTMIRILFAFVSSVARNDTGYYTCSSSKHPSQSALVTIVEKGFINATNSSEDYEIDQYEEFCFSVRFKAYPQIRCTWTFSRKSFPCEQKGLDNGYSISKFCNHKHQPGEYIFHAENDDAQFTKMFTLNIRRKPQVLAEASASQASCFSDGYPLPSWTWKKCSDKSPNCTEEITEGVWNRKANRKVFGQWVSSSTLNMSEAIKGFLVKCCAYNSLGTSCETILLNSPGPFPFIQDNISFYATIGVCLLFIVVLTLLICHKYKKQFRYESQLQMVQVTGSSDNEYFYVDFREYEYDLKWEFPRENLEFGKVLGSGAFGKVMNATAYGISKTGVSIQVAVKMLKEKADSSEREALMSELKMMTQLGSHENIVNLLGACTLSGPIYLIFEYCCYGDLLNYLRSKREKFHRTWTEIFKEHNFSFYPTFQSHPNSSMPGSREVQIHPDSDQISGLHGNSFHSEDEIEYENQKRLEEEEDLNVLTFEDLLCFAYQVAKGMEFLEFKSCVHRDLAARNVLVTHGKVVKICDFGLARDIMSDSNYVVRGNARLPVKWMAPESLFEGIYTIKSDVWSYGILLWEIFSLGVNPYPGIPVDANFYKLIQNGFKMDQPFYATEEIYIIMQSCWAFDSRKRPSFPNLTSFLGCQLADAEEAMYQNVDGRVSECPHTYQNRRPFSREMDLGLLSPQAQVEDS
- ASSAY TEXT: RBC HotSpot Kinase Assay, FLT3
- Type: biochemical
- Parameters: purchased RBC (Reaction Biology) HotSpot assay
- RECORDED CONDITIONS: HotSpot functional assay, isolated kinase enzyme, 33P-ATP
Below, each entry is listed alongside its reported IC50.

| MOLECULE | IC50 |
| --- | --- |
| COc1ccc(-c2cnc3cc(OC)c(C4CC4)nn23)nc1N[C@H]1CNC[C@@H]1F [Compound 33a] | < 500 pM |
| COc1cc2ncc(-c3nc(N[C@@H]4CCCNC4)c(F)cc3F)n2nc1C12CC(C1)C2 [Compound 65a] | < 500 pM |
| Oc1cc2ncc(-c3nc(N[C@@H]4CCCNC4)c(F)cc3F)n2nc1C1CC1 [Compound 75a] | 800 pM |
| COc1cc2ncc(-c3nc(N[C@@H]4CCCNC4)ccc3C#N)n2nc1C1CC1 [Compound 30a] | 48000 pM |
| COc1cc2ncc(-c3nc(N[C@@H]4CCCNC4)c(F)cc3F)n2nc1C1CCCCC1 [Compound 20a] | < 500 pM |
| COc1cc2ncc(-c3nc(N[C@H]4CNCC[C@@H]4F)c(F)cc3F)n2nc1N1CCCC1=O [Compound 22a] | < 500 pM |
| COc1cc2ncc(-c3nc(N[C@H]4CNC[C@@H]4F)c(F)cc3F)n2nc1C1CC(C)(C)C1 | 600 pM |
| COc1ccc(N[C@@H]2CCCNC2)nc1-c1cnc2cc(OC)c(C3CC3)nn12 [Compound 32a] | 80000 pM |
| COc1cc2ncc(-c3nc(N[C@H]4CNC[C@@H]4F)ccc3F)n2nc1C1CC1 [Compound 45a] | < 500 pM |
| COc1cc2ncc(-c3ccc(C#N)c(N[C@@H]4CCCNC4)n3)n2nc1C1CC1 [Compound 28a] | < 500 pM |
| COc1cc2ncc(-c3nc(N[C@H]4CNCC[C@@H]4F)c(F)cc3F)n2nc1C1CC(C)(C)C1 | < 500 pM |
| COc1cc2ncc(-c3cc(-c4ccccc4)cc(N[C@H]4CNC[C@@H]4F)n3)n2nc1C1CC1 [Compound 54a] | 949000 pM |
| COc1cc2ncc(-c3nc(N[C@@H]4CCCNC4)ccc3F)n2nc1C1CC1 [Compound 44a] | < 500 pM |
| COc1cc2ncc(-c3nc(N[C@H]4CNCC[C@@H]4F)ccc3C)n2nc1C1CC1 [Compound 39a] | < 500 pM |
| COc1cc2ncc(-c3nc(N[C@H]4CNC[C@@H]4F)c(F)cc3F)n2nc1C1CCCC1 [Compound 16a] | < 500 pM |
| COc1cc2ncc(-c3nc(N[C@H]4CNC[C@@H]4F)ccc3C)n2nc1C1CC1 [Compound 43a] | 700 pM |
